- Tested on: HeLa Kyoto;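 note: HeLa Kyoto cells arrested at G1/S by double thymidine block, proteins quantified by TMT10plex mass spectrometry in mild NP-40 versus SDS extracts, three biological replicates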
- protocol_text: solubility in G1/S (NP-40 vs SDS abundance) (log2 ratio); higher = more soluble
- details: cell cycle stage: G1/S
Label label 0 if solubility in G1/S (log2) falls below 0.1; label label 1 in every other case.

Record excerpt, results attached:
{"residue_string": "MQNEPLTPGYHGFPARDSQGNQEPTTTPDAMVQPFTTIPFPPPPQNGIPTEYGVPHTQDYAGQTGEHNLTLYGSTQAHGEQSSNSPSTQNGSLTTEGGAQTDGQQSQTQSSENSESKSTPKRLHVSNIPFRFRDPDLRQMFGQFGKILDVEIIFNERGSKGFGFVTFENSADADRAREKLHGTVVEGRKIEVNNATARVMTNKKMVTPYANGWKLSPVVGAVYGPELYAASSFQADVSLGNDAAVPLSGRGGINTYIPLISLPLVPGFPYPTAATTAAAFRGAHLRGRGRTVYGAVRAVPPTAIPAYPGVVYQDGFYGADLYGGYAAYRYAQPATATAATAAAAAAAAYSDGYGRVYTADPYHALAPAASYGVGAVASLYRGGYSRFAPY [RBFOX2]", "assigned_label": "label 1"}
{"residue_string": "MSLGRLCRLLKPALLCGALAAPGLAGTMCASRDDWRCARSMHEFSAKDIDGHMVNLDKYRGFVCIVTNVASQUGKTEVNYTQLVDLHARYAECGLRILAFPCNQFGKQEPGSNEEIKEFAAGYNVKFDMFSKICVNGDDAHPLWKWMKIQPKGKGILGNAIKWNFTKFLIDKNGCVVKRYGPMEEPLVIEKDLPHYF [GPX4]", "assigned_label": "label 1"}
{"residue_string": "MSFAESGWRSALRRRGPGTPGPVARPSYSSFTQGDSWGEGEVDEEEGCDQVARDLRAEFSAGAWSEPRKRSVLPPDGNGSPVLPDKRNGIFPAAAGSRAQPRRWPVQVLSILCSLLFAILLAFLLAIAYLIVKELHAENLKNEDDVDTGLLGFWTLLIISLTAGFSCCSFSWTVTYFDSFEPGMFPPTPLSPARFKKLTGHSFHMGYSMAILNGIVAALTVAWCLM [ARL6IP6]", "assigned_label": "label 0"}
{"residue_string": "MIPRKRYGSKNTDQGVYLGLSKTQVLSPATAGSSSSDIAPLPPPVTLVPPPPDTMSCRDRTQEFLSACKSLQTRQNGIQTNKPALRAVRQRSEFTLMAKRIGKDLSNTFAKLEKLTILAKRKSLFDDKAVEIEELTYIIKQDINSLNKQIAQLQDFVRAKGSQSGRHLQTHSNTIVVSLQSKLASMSNDFKSVLEVRTENLKQQRSRREQFSRAPVSALPLAPNHLGGGAVVLGAESHASKDVAIDMMDSRTSQQLQLIDEQDSYIQSRADTMQNIESTIVELGSIFQQLAHMVKEQEETIQRIDENVLGAQLDVEAAHSEILKYFQSVTSNRWLMVKIFLILIVFFIIFVVFLA [STX5]", "assigned_label": "label 1"}

Here's the next entry for you.
**Query** Answer whether solubility in G1/S (log2) of MICLVLTIFANLFPAACTGAHERTFLAVKPDGVQRRLVGEIVRRFERKGFKLVALKLVQASEELLREHYAELRERPFYGRLVKYMASGPVVAMVWQGLDVVRTSRALIGATNPADAPPGTIRGDFCIEVGKNLIHGSDSVESARREIALWFRADELLCWEDSAGHWLYE [NME3] is greater than or equal to 0.1.
**Result** label 0
